Biological target: ScSla1-D3
Assay: SPOT peptide array binding signal intensity (averaged, normalized) (arbitrary units (background-subtracted, floor 0; scale differs between SH3 domains)); higher = stronger binding of the SH3 domain to the peptide
Quick rule: SPOT peptide array binding signal intensity of at least 20 means Criterion met, below that means Criterion not met.

Given the entry QHQQRQPKRPKRYSL , answer whether its SPOT peptide array binding signal intensity meets or surpasses 20.
Criterion met

Given the entry RKQRSIPLSPIVPES , answer whether its SPOT peptide array binding signal intensity meets or surpasses 20.
Criterion met

Given the entry SGVRLPAPPPPPRRG , answer whether its SPOT peptide array binding signal intensity meets or surpasses 20.
Criterion not met

Given the entry PSPSSSPPPIPKTAN , answer whether its SPOT peptide array binding signal intensity meets or surpasses 20.
Criterion met

Given the entry IPSRPAPKPPSSASA , answer whether its SPOT peptide array binding signal intensity meets or surpasses 20.
Criterion met

Given the entry TEVPIPRRPPPPQAA , answer whether its SPOT peptide array binding signal intensity meets or surpasses 20.
Criterion not met

Given the entry NAGIRPKFILALNDE , answer whether its SPOT peptide array binding signal intensity meets or surpasses 20.
Criterion not met

Source listed as the supplement of paper PMC4466140.
